B1: library; a variant is named by its letters at N, in order (parent)
chain: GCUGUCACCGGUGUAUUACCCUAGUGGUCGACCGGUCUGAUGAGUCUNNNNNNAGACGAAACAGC

# Variants of: B1
# assay_notes: normalized RNA/DNA level with ligand (relative to sTRSVctl = 100) (log10 (% of sTRSVctl)); ligand: hypoxanthine (xanthine aptamer); higher = less ribozyme self-cleavage, higher mRNA level
# condition_set: ligand concentration (+) RNA-Seq: 5 mM, HEK293T, reporter: mCherry (pCS4076), ligand present: yes
endpoint_label: normalized RNA/DNA level with ligand (log10)
Would you mind answering with just the numeric figure?

[ask] Fill in the blank: the reported normalized RNA/DNA level with ligand (log10) of `AGCUUC` is ____.
[reply] 2.02

[ask] Fill in the blank: the reported normalized RNA/DNA level with ligand (log10) of `GCGUCG` is ____.
[reply] 1.89

[ask] Fill in the blank: the reported normalized RNA/DNA level with ligand (log10) of `ACUCAA` is ____.
[reply] 1.92

[ask] Fill in the blank: the reported normalized RNA/DNA level with ligand (log10) of `AACUAC` is ____.
[reply] 1.92

[ask] Fill in the blank: the reported normalized RNA/DNA level with ligand (log10) of `GUCCGA` is ____.
[reply] 1.95

[ask] Fill in the blank: the reported normalized RNA/DNA level with ligand (log10) of `CGAUAA` is ____.
[reply] 1.86

[ask] Fill in the blank: the reported normalized RNA/DNA level with ligand (log10) of `GGCGUA` is ____.
[reply] 1.91

[ask] Fill in the blank: the reported normalized RNA/DNA level with ligand (log10) of `CUCACG` is ____.
[reply] 1.93

[ask] Fill in the blank: the reported normalized RNA/DNA level with ligand (log10) of `CCACAC` is ____.
[reply] 1.93

[ask] Fill in the blank: the reported normalized RNA/DNA level with ligand (log10) of `GAAGGG` is ____.
[reply] 1.81

[ask] Fill in the blank: the reported normalized RNA/DNA level with ligand (log10) of `UUAUUA` is ____.
[reply] 1.96

[ask] Fill in the blank: the reported normalized RNA/DNA level with ligand (log10) of `ACGACU` is ____.
[reply] 1.84

[ask] Fill in the blank: the reported normalized RNA/DNA level with ligand (log10) of `AAUAAU` is ____.
[reply] 1.89

[ask] Fill in the blank: the reported normalized RNA/DNA level with ligand (log10) of `UAUACG` is ____.
[reply] 1.83

[ask] Fill in the blank: the reported normalized RNA/DNA level with ligand (log10) of `GUCCAC` is ____.
[reply] 1.94

[ask] Fill in the blank: the reported normalized RNA/DNA level with ligand (log10) of `CAGCAC` is ____.
[reply] 1.94

[ask] Fill in the blank: the reported normalized RNA/DNA level with ligand (log10) of `CCUGCA` is ____.
[reply] 2.01

[ask] Fill in the blank: the reported normalized RNA/DNA level with ligand (log10) of `AAAAGA` is ____.
[reply] 1.91

[ask] Fill in the blank: the reported normalized RNA/DNA level with ligand (log10) of `UGCCAG` is ____.
[reply] 1.9

[ask] Fill in the blank: the reported normalized RNA/DNA level with ligand (log10) of `UCACGC` is ____.
[reply] 1.94
